src = patent US20200292534A1

target: VA; assay: luminescence complementation; conditions: chains peptide; modification not given
Observable: Kd
Please make sure the unit comes right after the number.

According to the records, this binder SGWRLFKKISN [NLpep81] displays Kd of 132 nM
